Let's look at some compounds and their measured % Remaining at 120 min.
MEASUREMENT PROTOCOL: Plasma Stability
Type: in vitro ADME
PROTOCOL CONDITIONS: Human Plasma
Numbers only here, please. The scale is %.

| COMPOUND | READING UNIT | % Remaining at 120 min |
| --- | --- | --- |
| CC1C=CC=CC=CC=CC=CC=CC=CC(OC2OC(C)C(O)C(N)C2O)CC2OC(O)(CC(O)CC(O)C(O)CCC(O)CC(O)CC(=O)OC(C)C(C)C1O)CC(O)C2C(=O)NCCO (stereo not drawn) [Compound BA] | % | 118 |
| COC(=O)C(Cc1c[nH]cn1)NC(=O)C1C(O)CC2(O)CC(O)CC(O)C(O)CCC(O)CC(O)CC(=O)OC(C)C(C)C(O)C(C)C=CC=CC=CC=CC=CC=CC=CC(OC3OC(C)C(O)C(N)C3O)CC1O2 (stereo not drawn) [AL] | % | 107 |
| CC1C=CC=CC=CC=CC=CC=CC=CC(OC2OC(C)C(O)C(N)C2O)CC2OC(O)(CC(O)CC(O)C(O)CCC(O)CC(O)CC(=O)OC(C)C(C)C1O)CC(O)C2C(=O)NCCN (stereo not drawn) [AM] | % | 102 |
| CNC(=O)C1C(O)CC2(O)CC(O)CC(O)C(O)CCC(O)CC(O)CC(=O)OC(C)C(C)C(O)C(C)C=CC=CC=CC=CC=CC=CC=CC(OC3OC(C)C(O)C(N)C3O)CC1O2 (stereo not drawn) [AN] | % | 106 |
| CC1C=CC=CC=CC=CC=CC=CC=CC(OC2OC(C)C(O)C(N)C2O)CC2OC(O)(CC(O)CC(O)C(O)CCC(O)CC(O)CC(=O)OC(C)C(C)C1O)CC(O)C2C(=O)NCCO (stereo not drawn) [Compound AA] | % | 119 |

Switching to the query record.
Data request: # lookup: % Remaining at 120 min of C[C@@H]1[C@H](O)[C@@H](C)/C=C/C=C/C=C/C=C/C=C/C=C/C=C/[C@H](OC2O[C@H](C)[C@@H](O)[C@H](N)[C@@H]2O)C[C@@H]2O[C@](O)(C[C@@H](O)C[C@@H](O)[C@H](O)CC[C@@H](O)C[C@@H](O)CC(=O)O[C@H]1C)C[C@H](O)[C@H]2C(=O)O (stereo partly drawn) [AmB, Amphotericin B]
Data returned: 97.7
